Assignment: determine reported log10(ED50) for the given compounds.
# Species on record: Mus musculus
# procedure.details: Antagonism of tetrabenazine (TBZ)-induced depression in mice measured for ptosis
# Type: functional
# condition.label: Mus musculus; read-out: ED50
The common logarithm of ED50 in mg/kg is what is listed.

Give recorded log10(ED50). COc1cccc2c1[C@H](c1ccccc1)CN1CCC[C@H]21
0.08

Query log10(ED50) for CN1Cc2c(N)cccc2C(c2ccccc2)C1 (stereo unspecified)
-0.96

Item CCCCc1ccc([C@@H]2CN3CCC[C@@H]3c3ccccc32)cc1 : provide log10(ED50)
0.96

Look up log10(ED50) of CN(C)CCCN1c2ccccc2CCc2ccccc21 and report it.
-0.11

Please give the documented log10(ED50) of c1ccc([C@H]2CN3CC[C@H]3c3ccccc32)cc1
0.10

For Br.Clc1ccccc1[C@@H]1CN2CCC[C@H]2c2ccccc21 , write its log10(ED50).
0.40

State its log10(ED50) for this compound: Br.COc1ccc([C@@H]2CN3CCC[C@@H]3c3ccccc32)cc1OC
-0.89

Let me know recorded log10(ED50) for Clc1ccc([C@@H]2CN3CCC[C@H]3c3ccccc32)cc1 , thanks.
0.73

Kindly indicate its recorded log10(ED50). Item: Br.Oc1cccc([C@@H]2CN3CCC[C@@H]3c3ccccc32)c1
-0.96

Please report the measured log10(ED50) for Br.COc1ccc2c(c1)[C@@H]1CCCN1C[C@H]2c1ccccc1
0.90

State its log10(ED50): Br.F[C@]1(c2ccccc2)CN2CCC[C@H]2c2ccccc21
0.08

Item Br.Fc1ccc([C@@H]2CN3CCC[C@@H]3c3cc(F)ccc32)cc1 : provide log10(ED50)
-1.30

Indicate the recorded log10(ED50) value for this compound: Br.C[C@@]1(c2ccccc2)CN2CCC[C@H]2c2ccccc21
1.21

Annotate the compound Clc1ccc([C@@H]2CN3CCC[C@H]3c3ccccc32)cc1Cl with its measured log10(ED50).
0.90

The origin of these recorded values is ChEMBL document CHEMBL1123812.
